- tgt: human Nav 1.5 channels stably expressed in HEK 293 cells (Homo sapiens, UniProt Q14524)
- Construct: expressed in transfected cells; host or cells: HEK 293
- Sequence (Q14524 whole entry): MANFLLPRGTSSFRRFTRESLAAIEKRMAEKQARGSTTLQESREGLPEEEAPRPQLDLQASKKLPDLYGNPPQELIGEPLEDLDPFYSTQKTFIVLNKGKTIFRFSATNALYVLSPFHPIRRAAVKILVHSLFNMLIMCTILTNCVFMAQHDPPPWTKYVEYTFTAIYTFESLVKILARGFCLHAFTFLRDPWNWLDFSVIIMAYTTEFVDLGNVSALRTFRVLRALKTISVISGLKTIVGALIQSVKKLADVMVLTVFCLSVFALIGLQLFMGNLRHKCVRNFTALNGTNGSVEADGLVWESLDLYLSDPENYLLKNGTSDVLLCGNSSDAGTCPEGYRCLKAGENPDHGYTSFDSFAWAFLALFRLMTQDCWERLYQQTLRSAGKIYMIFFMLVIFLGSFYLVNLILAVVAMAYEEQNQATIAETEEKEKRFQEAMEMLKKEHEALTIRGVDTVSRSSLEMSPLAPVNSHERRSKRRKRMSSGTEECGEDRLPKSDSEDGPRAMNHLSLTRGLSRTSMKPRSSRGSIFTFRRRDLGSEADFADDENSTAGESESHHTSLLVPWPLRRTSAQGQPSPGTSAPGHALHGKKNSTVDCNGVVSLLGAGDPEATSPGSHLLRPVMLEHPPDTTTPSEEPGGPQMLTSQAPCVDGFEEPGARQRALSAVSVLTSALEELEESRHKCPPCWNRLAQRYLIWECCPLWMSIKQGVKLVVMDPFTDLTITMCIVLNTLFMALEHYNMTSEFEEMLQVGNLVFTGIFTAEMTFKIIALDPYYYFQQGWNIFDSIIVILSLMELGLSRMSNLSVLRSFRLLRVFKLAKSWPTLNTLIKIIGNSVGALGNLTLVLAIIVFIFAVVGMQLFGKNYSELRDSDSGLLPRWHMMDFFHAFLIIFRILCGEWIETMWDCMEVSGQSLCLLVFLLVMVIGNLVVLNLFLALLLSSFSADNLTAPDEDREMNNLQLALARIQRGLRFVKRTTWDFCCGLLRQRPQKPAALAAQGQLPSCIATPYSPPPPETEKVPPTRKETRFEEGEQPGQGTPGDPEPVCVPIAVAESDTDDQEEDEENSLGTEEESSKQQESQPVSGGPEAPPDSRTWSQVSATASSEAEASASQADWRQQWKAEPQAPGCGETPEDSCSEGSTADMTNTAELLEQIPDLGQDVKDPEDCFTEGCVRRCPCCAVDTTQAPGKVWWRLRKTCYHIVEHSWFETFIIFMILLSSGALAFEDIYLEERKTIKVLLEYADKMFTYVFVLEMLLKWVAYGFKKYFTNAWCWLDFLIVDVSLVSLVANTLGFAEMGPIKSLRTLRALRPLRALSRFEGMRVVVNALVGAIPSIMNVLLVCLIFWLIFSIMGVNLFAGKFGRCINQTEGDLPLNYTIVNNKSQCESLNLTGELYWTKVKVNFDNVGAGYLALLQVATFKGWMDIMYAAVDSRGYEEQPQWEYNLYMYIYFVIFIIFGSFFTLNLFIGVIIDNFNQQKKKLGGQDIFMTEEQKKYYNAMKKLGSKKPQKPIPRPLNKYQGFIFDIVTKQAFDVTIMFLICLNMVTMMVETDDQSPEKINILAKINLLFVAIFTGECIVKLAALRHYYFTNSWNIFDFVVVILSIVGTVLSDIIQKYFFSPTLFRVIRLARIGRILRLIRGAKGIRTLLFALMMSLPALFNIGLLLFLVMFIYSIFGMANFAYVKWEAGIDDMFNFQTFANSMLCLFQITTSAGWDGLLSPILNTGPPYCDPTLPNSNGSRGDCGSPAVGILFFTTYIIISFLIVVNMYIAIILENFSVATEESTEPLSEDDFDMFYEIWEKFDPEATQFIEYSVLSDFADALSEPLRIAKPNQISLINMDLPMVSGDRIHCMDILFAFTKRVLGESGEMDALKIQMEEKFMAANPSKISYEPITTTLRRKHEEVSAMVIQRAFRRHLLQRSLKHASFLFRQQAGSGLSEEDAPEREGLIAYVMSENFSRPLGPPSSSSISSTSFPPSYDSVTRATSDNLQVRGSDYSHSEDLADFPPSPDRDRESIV
- protocol.details: IonWorks Quattro automated patch-clamp, inactivated state block of Nav 1.5 (reported as ratio to Nav 1.7 potency)
- Format: cell-based
- measurement.conditions: selectivity for Nav 1.7 over Nav 1.5, both by IonWorks
measurement.kind: ratio of Nav 1.7 : Nav 1.5 potency (IonWorks)

C[C@@H](N)CNCCCCCNc1cc(F)c(S(=O)(=O)Nc2nccs2)cc1Cl [Ex 9-05]    > 420
N[C@@H]1CCCN(CCCCNc2cc(F)c(S(=O)(=O)Nc3nccs3)cc2Cl)C1 [Ex 1-35]    > 170
O=S(=O)(Nc1nccs1)c1cc(Cl)c(NCCCCN2CCC3CCC(C2)N3)cc1F (stereo not drawn) [Ex 1-52]    > 343
O=S(=O)(Nc1nccs1)c1cc(Cl)c(NCCCCNCC2Cc3ccccc3CN2)cc1F (single isomer, unassigned) [Ex 1-18]    > 4177
CNCCNCCCCNc1cc(F)c(S(=O)(=O)Nc2ncns2)cc1F [Ex 16-47]    > 460
O=S(=O)(Nc1nccs1)c1cc(Cl)c(NCCCCN2CCCC3(CCCN3)C2)cc1F (stereo not drawn) [Ex 1-39]    > 250

Prompt: Entry N#Cc1cc(S(=O)(=O)Nc2nccs2)c(F)cc1NCCCCN[C@@H]1CCNC1 [Ex 16-39] has what ratio of Nav 1.7 : Nav 1.5 potency (IonWorks)?
Response: > 917

Prompt: Could you do the same for O=S(=O)(Nc1nccs1)c1ccc(NCCCCNC[C@@H]2CCCN2)c(C(F)(F)F)c1 [Ex 7-04] , please?
Response: > 800

Prompt: Could you do the same for NC[C@@H]1CCN1CCCCNc1cc(F)c(S(=O)(=O)Nc2ncc(F)s2)cc1Cl [Ex 16-11] , please?
Response: > 1530

Prompt: Could you do the same for NCC1CCN1CCCCNc1cc(F)c(S(=O)(=O)Nc2nccs2)cc1Cl (single isomer, unassigned) [Ex 16-53] , please?
Response: > 786

Prompt: Could you do the same for O=S(=O)(Nc1nccs1)c1cc(Cl)c(NCCCCN2C[C@H]3CNCC[C@H]3C2)cc1F [Ex 1-23] , please?
Response: > 770

Prompt: Could you do the same for COc1ccc(CC2(CNCCCCNc3cc(F)c(S(=O)(=O)Nc4nccs4)cc3Cl)CCCN2)cc1 (single isomer, unassigned) [Ex 1-16 Enantiomer A] , please?
Response: 50

Prompt: Could you do the same for NC[C@H]1CCCN1CCCCNc1cc(F)c(S(=O)(=O)Nc2nccs2)cc1Cl [Ex 1-41] , please?
Response: > 690

Prompt: Could you do the same for CNCCNCCCCNc1cc(F)c(S(=O)(=O)Nc2nc(C)cs2)cc1Cl [Ex 16-51] , please?
Response: > 943

Prompt: Could you do the same for N[C@H]1[C@@H]2CC[C@H]1N(CCCCNc1cc(F)c(S(=O)(=O)Nc3nccs3)cc1Cl)C2 [Ex 1-20] , please?
Response: > 590
